Source: ChEMBL document CHEMBL3044747

- System: Mycobacterium tuberculosis
- assay-protocol: Antimycobacterial activity against Mycobacterium tuberculosis H37Rv grown on Lowenstein-Jensen solid medium assessed as growth inhibition incubated with compound dissolved in water measured after 4 weeks
- Format: functional
- condition-parameters: 672 h
Please assign condition not met whenever MIC is at or above 50 µg/mL, and condition met whenever it is below.

molecule=COc1cc(O)c(C/C=C/c2ccccc2)c(OC)c1 assigned_class="condition met"
molecule=CCCC/C=C/CCCCCCCCCC1=C(O)C(=O)C(C)=C(O)C1=O assigned_class="condition met"
molecule=CC1=CC(=O)c2c(O)cccc2C1=O assigned_class="condition met"
molecule=O=C1C[C@@H](c2ccccc2)Oc2cc(O)cc(O)c21 assigned_class="condition not met"
molecule=CC(=O)c1c(C)cc2cccc(O)c2c1O assigned_class="condition not met"
molecule="C=C1CC23CCC4[C@](O)(CO)C[C@@H](O)C[C@]4(C)C2CCC1C3 (stereo partly specified)" assigned_class="condition not met"
molecule="CC(C)CCc1cc2c(cc1O)OCC1c3cc(O)cc(CCC(C)C)c3OC21 (stereo unspecified)" assigned_class="condition not met"
molecule=COc1cc2c(=O)c(-c3ccc4c(c3)OCO4)coc2c2c1OC(C)(C)CC2 assigned_class="condition met"
